pKi values for Endothelin receptor type B (Homo sapiens, UniProt P24530) compiled from several publications are listed below.
Conceptually, pKi converts a concentration in mol/L into minus its log10.

Study these solved cases before continuing.
COc1ccc(CCOC(c2ccccc2)(c2ccccc2)C(Oc2nc(C)c(C)s2)C(=O)O)cc1OC (centres unmarked)
6.68
COc1cc(C)nc(OC(C(=O)O)C(OCC(=O)N(C)c2ccccc2)(c2ccccc2)c2ccccc2)n1 (centres unmarked)
6.96
COc1ccc(CCOC(c2ccccc2)(c2ccccc2)C(Oc2nc(C)cc(OC)n2)C(=O)O)cc1 (centres unmarked)
7.64
COc1ccc(CCOC(c2ccccc2)(c2ccccc2)C(Oc2nc(C)c(C)o2)C(=O)O)cc1OC (centres unmarked)
6.31
COc1cc(OC)nc(OC(C(=O)O)C(NC(=O)N(C)c2ccccc2)(c2ccccc2)c2ccccc2)n1 (centres unmarked)
5.24

Kindly note: Endothelin receptor type B (Homo sapiens, UniProt P24530), Cc1cc(C)nc(OC(C(=O)O)C(NC(=O)N(C)C2CCCCC2)(c2ccccc2)c2ccccc2)n1 (centres unmarked) , pKi value reported: 6.71

Kindly note: Endothelin receptor type B (Homo sapiens, UniProt P24530), COc1cc(CCOC(c2ccccc2)(c2ccccc2)C(Oc2nc3c(c(OC)n2)CCC3)C(=O)O)cc(OC)c1 (centres unmarked) , pKi value reported: 6.54

Kindly note: Endothelin receptor type B (Homo sapiens, UniProt P24530), CCOc1ccc(CCOC(c2ccccc2)(c2ccccc2)C(Oc2nc(C)cc(C)n2)C(=O)O)cc1OC (centres unmarked) , pKi value reported: 7.54

Kindly note: Endothelin receptor type B (Homo sapiens, UniProt P24530), COc1ccc(CN(C)C(=O)NC(c2ccccc2)(c2ccccc2)C(Oc2nc(C)cc(C)n2)C(=O)O)cc1 (centres unmarked) , pKi value reported: 5.63
